Every entry's value here was drawn from PubChem BioAssay (NCI).

# experiment: NCI Yeast Anticancer Drug Screen. Data for the rad14 strain (AID 159);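 note: 0% = growth of vehicle-treated control cultures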
# measurement.context: S. cerevisiae rad14 strain growth inhibition; at 3.7 µM; active compounds read high
This is part of a sample that, as a whole, favours compounds with a hit. Of some 79,000 tested, about 15% had one in any assay.
value.type: growth inhibition (%)
Give just the number in %; leave the unit off.

Quickly give me recorded growth inhibition for "O=c1c(Br)cc2c(-c3ccccc3)c3cc(Br)c(O)c(Br)c3oc-2c1Br" 17

Quickly give me recorded growth inhibition for "CN(C)CCNC(=O)c1cccc2nc3c(ccc4ccccc43)nc12" 2

Quickly give me recorded growth inhibition for "O=C1C(Br)=CC(Br)(Br)C=C1Br" -10

Quickly give me recorded growth inhibition for "CN(C)N1C(=O)SCC(c2ccccc2)(c2ccccc2)C1=O" -3

Quickly give me recorded growth inhibition for "COc1ccc(CCN2C(=O)C=CC2=O)cc1OC" 3

Quickly give me recorded growth inhibition for "CN(C)N=Nc1ccc(NC=O)cc1" 3
